Target: hERG1 (Homo sapiens, UniProt Q12809)
Construct: expressed in transfected cells; host or cells: HEK 293
Sequence (Q12809 whole entry): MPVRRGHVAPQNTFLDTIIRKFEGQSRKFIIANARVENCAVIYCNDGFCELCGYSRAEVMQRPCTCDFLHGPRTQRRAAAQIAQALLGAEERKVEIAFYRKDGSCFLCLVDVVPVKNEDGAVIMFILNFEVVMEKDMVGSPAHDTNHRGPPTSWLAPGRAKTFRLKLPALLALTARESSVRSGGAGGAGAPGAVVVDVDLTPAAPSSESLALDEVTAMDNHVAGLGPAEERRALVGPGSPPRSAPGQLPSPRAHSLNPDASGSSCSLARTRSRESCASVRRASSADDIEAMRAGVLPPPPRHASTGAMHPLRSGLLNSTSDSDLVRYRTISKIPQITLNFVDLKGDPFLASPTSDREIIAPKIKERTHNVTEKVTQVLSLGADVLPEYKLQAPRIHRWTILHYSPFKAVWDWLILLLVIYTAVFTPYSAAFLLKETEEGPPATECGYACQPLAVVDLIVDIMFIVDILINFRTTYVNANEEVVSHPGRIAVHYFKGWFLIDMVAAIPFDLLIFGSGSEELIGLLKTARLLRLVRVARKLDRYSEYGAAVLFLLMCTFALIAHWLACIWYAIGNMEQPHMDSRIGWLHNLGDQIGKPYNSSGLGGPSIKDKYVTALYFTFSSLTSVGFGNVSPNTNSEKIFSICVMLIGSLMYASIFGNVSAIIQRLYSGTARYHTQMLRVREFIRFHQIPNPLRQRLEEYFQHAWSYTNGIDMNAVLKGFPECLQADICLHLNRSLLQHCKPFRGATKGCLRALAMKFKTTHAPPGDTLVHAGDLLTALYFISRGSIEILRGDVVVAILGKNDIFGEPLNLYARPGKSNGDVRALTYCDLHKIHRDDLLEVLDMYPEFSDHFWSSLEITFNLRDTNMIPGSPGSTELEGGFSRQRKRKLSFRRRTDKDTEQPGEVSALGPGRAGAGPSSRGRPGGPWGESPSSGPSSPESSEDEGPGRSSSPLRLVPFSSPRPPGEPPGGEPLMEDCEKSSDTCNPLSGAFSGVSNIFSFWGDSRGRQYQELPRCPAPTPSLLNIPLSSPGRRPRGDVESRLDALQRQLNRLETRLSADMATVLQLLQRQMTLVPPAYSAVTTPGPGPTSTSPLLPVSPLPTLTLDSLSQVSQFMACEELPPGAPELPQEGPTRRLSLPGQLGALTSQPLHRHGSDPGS
Test: Whole cell patch-clamp of hERG1 currents in transfected HEK 293 cells
Type: cell-based
Settings: Conc. 50 µM; deactivation time constant relative to baseline
Endpoint: Deactivation Δλ/λcon

stdin: # query: Deactivation Δλ/λcon of entry "CN(C(=O)c1cccc(C(F)(F)F)c1)c1ccccc1"
stdout: −0.2±0.05

Need Deactivation Δλ/λcon for each of these compounds.
1. COCOc1ccc(C(F)(F)F)cc1NC(=O)NC(=O)[C@H](C)N
2. C[C@H](NS(=O)(=O)c1ccc(N)cc1)C(=O)NC(=O)Nc1cc(C(F)(F)F)ccc1O
3. C[C@H](NS(=O)(=O)c1ccc([N+](=O)[O-])cc1)C(=O)NC(=O)Nc1cc(C(F)(F)F)ccc1O
4. COCOc1ccc(C(F)(F)F)cc1NC(=O)Oc1ccccc1
5. C[C@H](NCc1ccc(C(F)(F)F)cc1)C(=O)NC(=O)Nc1cc(C(F)(F)F)ccc1O
6. COCOc1ccc(C(F)(F)F)cc1NC(=O)NC(=O)[C@H](C)N(Cc1ccccc1)Cc1ccccc1

stdout:
1: 0.003±0.14; 2: 0.5±0.1; 3: 0.6±0.3; 4: −0.2±0.09; 5: 4.5±0.1; 6: 0.25±0.18

stdin: # query: Deactivation Δλ/λcon of entry "COCOc1ccc(C(F)(F)F)cc1NC(N)=O"
stdout: 0.02±0.1

====

Molecular target: hERG1 (Homo sapiens, UniProt Q12809)
Construct: expressed in transfected cells; host or cells: HEK 293
Test: Whole cell patch-clamp of hERG1 currents in transfected HEK 293 cells
Assay type: cell-based
Parameters: unit not given here
Conditions: Conc. 20 µM; shift in voltage-dependence of inactivation
Endpoint: Inactivation ΔV0.3
Numbers only.

Record excerpt, results attached:
stdin: # query: Inactivation ΔV0.3 of entry "C[C@H](NC(=O)c1ccc([N+](=O)[O-])cc1)C(=O)NC(=O)Nc1cc(C(F)(F)F)ccc1O"
stdout: −3.5

stdin: # query: Inactivation ΔV0.3 of entry "COCOc1ccc(C(F)(F)F)cc1NC(=O)NC(=O)[C@H](C)NC(=O)c1ccc([N+](=O)[O-])cc1"
stdout: −7.3

stdin: # query: Inactivation ΔV0.3 of entry "COCOc1ccc(C(F)(F)F)cc1NC(=O)NC(=O)[C@H](C)NCc1ccc(C(F)(F)F)cc1"
stdout: −12.3

Now let's try a different one.
stdin: # query: Inactivation ΔV0.3 of entry "C[C@H](NCc1ccc(Br)cc1)C(=O)NC(=O)Nc1cc(C(F)(F)F)ccc1O"
stdout: −4.5

====

Biological target: hERG1 (Homo sapiens, UniProt Q12809)
Construct: expressed in transfected cells; host or cells: HEK 293
Test: Whole cell patch-clamp of hERG1 currents in transfected HEK 293 cells
Format: cell-based
Conditions: Conc. 20 µM; tail current relative to baseline
Endpoint: Amplitude I/Icon
Numbers only.

Record excerpt, results attached:
stdin: # query: Amplitude I/Icon of entry "COCOc1ccc(C(F)(F)F)cc1NC(=O)NC(=O)[C@H](C)NCc1ccc(C(F)(F)F)cc1"
stdout: 0.4

stdin: # query: Amplitude I/Icon of entry "C[C@H](NC(=O)c1ccccc1)C(=O)NC(=O)Nc1cc(C(F)(F)F)ccc1O"
stdout: 0.7

stdin: # query: Amplitude I/Icon of entry "C[C@H](NC(=O)c1ccc([N+](=O)[O-])cc1)C(=O)NC(=O)Nc1cc(C(F)(F)F)ccc1O"
stdout: 0.6

stdin: # query: Amplitude I/Icon of entry "COCOc1ccc(C(F)(F)F)cc1NC(=O)NC(=O)[C@H](C)NCc1ccc(Br)cc1"
stdout: 0.5

stdin: # query: Amplitude I/Icon of entry "C[C@H](NCc1ccc(C(F)(F)F)cc1)C(=O)NC(=O)Nc1cc(C(F)(F)F)ccc1O"
stdout: 0.86

Need Amplitude I/Icon for each of these compounds.
1. COCOc1ccc(C(F)(F)F)cc1NC(=O)NC(=O)[C@H](C)NC(=O)c1ccccc1
2. COCOc1ccc(C(F)(F)F)cc1NC(=O)NC(=O)[C@H](C)NC(=O)c1ccc([N+](=O)[O-])cc1

stdout:
0.6
0.6

stdin: # query: Amplitude I/Icon of entry "C[C@H](NS(=O)(=O)c1ccc(N)cc1)C(=O)NC(=O)Nc1cc(C(F)(F)F)ccc1O"
stdout: 1.0

====

Target: hERG1 (Homo sapiens)
Construct: expressed in transfected cells; host or cells: HEK 293
Assay: Whole cell patch-clamp of hERG1 currents in transfected HEK 293 cells
Type: cell-based
Conditions: Conc. 20 µM; shift in voltage-dependence of activation
Endpoint: Activation V1/2 (mV)
Answers are plain numbers, in mV.

Record excerpt, results attached:
stdin: # query: Activation V1/2 (mV) of entry "COCOc1ccc(C(F)(F)F)cc1NC(=O)NC(=O)[C@H](C)NC(=O)c1ccc([N+](=O)[O-])cc1"
stdout: −6.3

stdin: # query: Activation V1/2 (mV) of entry "C[C@H](NCc1ccc(Br)cc1)C(=O)NC(=O)Nc1cc(C(F)(F)F)ccc1O"
stdout: −33

stdin: # query: Activation V1/2 (mV) of entry "C[C@H](NCc1ccccc1)C(=O)NC(=O)Nc1cc(C(F)(F)F)ccc1O"
stdout: −14.5

stdin: # query: Activation V1/2 (mV) of entry "C[C@H](NS(=O)(=O)c1ccc(N)cc1)C(=O)NC(=O)Nc1cc(C(F)(F)F)ccc1O"
stdout: −5

stdin: # query: Activation V1/2 (mV) of entry "COCOc1ccc(C(F)(F)F)cc1NC(=O)NC(=O)[C@H](C)NC(=O)c1ccccc1"
stdout: −12.7

stdin: # query: Activation V1/2 (mV) of entry "C[C@H](NCc1ccc(F)cc1)C(=O)NC(=O)Nc1cc(C(F)(F)F)ccc1O"
stdout: −17.3

stdin: # query: Activation V1/2 (mV) of entry "C[C@H](NC(=O)c1ccccc1)C(=O)NC(=O)Nc1cc(C(F)(F)F)ccc1O"
stdout: −3.7

stdin: # query: Activation V1/2 (mV) of entry "C[C@H](NC(=O)c1ccc([N+](=O)[O-])cc1)C(=O)NC(=O)Nc1cc(C(F)(F)F)ccc1O"
stdout: −7

stdin: # query: Activation V1/2 (mV) of entry "C[C@H](NCc1ccc(C(F)(F)F)cc1)C(=O)NC(=O)Nc1cc(C(F)(F)F)ccc1O"
stdout: −15.3

stdin: # query: Activation V1/2 (mV) of entry "COCOc1ccc(C(F)(F)F)cc1NC(=O)NC(=O)[C@H](C)NCc1ccc(C(F)(F)F)cc1"
stdout: −13.7

Need Activation V1/2 (mV) for each of these compounds.
1. COCOc1ccc(C(F)(F)F)cc1NC(=O)NC(=O)[C@H](C)NCc1ccc(Br)cc1
2. COCOc1ccc(C(F)(F)F)cc1NC(=O)NC(=O)[C@H](C)NCc1ccc(F)cc1

stdout:
["−9.1", "−12.5"]

====

Give measured Inactivation ΔV0.3 for each item. Keep answers brief.
Target: hERG1 (Homo sapiens, UniProt Q12809)
Construct: expressed in transfected cells; host or cells: HEK 293
Assay: Whole cell patch-clamp of hERG1 currents in transfected HEK 293 cells
Assay type: cell-based
Set-up: unit not given here
Details: Conc. 10 µM; shift in voltage-dependence of inactivation

Record excerpt, results attached:
stdin: # query: Inactivation ΔV0.3 of entry "C[C@H](NCc1ccc(C(F)(F)F)cc1)C(=O)NC(=O)Nc1cc(C(F)(F)F)ccc1O"
stdout: 14.0±2.7

stdin: # query: Inactivation ΔV0.3 of entry "O=C(Nc1cc(C(F)(F)F)ccc1O)Nc1cc(C(F)(F)F)ccc1O"
stdout: +6±0.6

stdin: # query: Inactivation ΔV0.3 of entry "COCOc1ccc(C(F)(F)F)cc1NC(=O)NC(=O)[C@H](C)NS(=O)(=O)c1ccc([N+](=O)[O-])cc1"
stdout: −11±2

New cases:
stdin: # query: Inactivation ΔV0.3 of entry "COCOc1ccc(C(F)(F)F)cc1NC(=O)NC(=O)[C@H](C)N(Cc1ccccc1)Cc1ccccc1"
stdout: −1±0.6

====

Molecular target: hERG1 (Homo sapiens, UniProt Q12809)
Construct: expressed in transfected cells; host or cells: HEK 293
Assay: Whole cell patch-clamp of hERG1 currents in transfected HEK 293 cells
Type: cell-based
Settings: Conc. 10 µM; shift in voltage-dependence of activation
Give measured Activation V1/2 (mV) for each item. Keep answers brief.
Answers are plain numbers, in mV.

Record excerpt, results attached:
stdin: # query: Activation V1/2 (mV) of entry COCOc1ccc(C(F)(F)F)cc1NC(=O)NC(=O)[C@H](C)N(Cc1ccccc1)Cc1ccccc1 [Compound 17]
stdout: −5

stdin: # query: Activation V1/2 (mV) of entry COCOc1ccc(C(F)(F)F)cc1NC(=O)NC(=O)[C@H](C)N [Compound 16]
stdout: −7

stdin: # query: Activation V1/2 (mV) of entry C[C@H](NCc1ccc(C(F)(F)F)cc1)C(=O)NC(=O)Nc1cc(C(F)(F)F)ccc1O [Compound 5]
stdout: −14

stdin: # query: Activation V1/2 (mV) of entry O=C(Nc1cc(C(F)(F)F)ccc1O)Nc1cc(C(F)(F)F)ccc1O [NS1643]
stdout: −21

Now let's try a different one.
stdin: # query: Activation V1/2 (mV) of entry COCOc1ccc(C(F)(F)F)cc1NC(=O)NC(=O)[C@H](C)NS(=O)(=O)c1ccc([N+](=O)[O-])cc1 [Compound 15]
stdout: −3

Numbers sourced from paper PMC4156305.
